Tested on: NCI-H23 lung
Experiment: NCI tumour cell line growth inhibition, 48 h
Measurement kind: TGI

Consider the following illustrative entries.
1) Cc1cn(CCCCCCOC(=O)NC(CCCNC(N)=O)C(=O)O)c(=O)[nH]c1=O (stereo not given)
> 100 µM
2) COc1ccccc1NC(=O)C(=O)C(C(=O)c1ccccc1F)C1OC(=O)c2ccccc21 (stereo not given)
57.6 µM

Ask: Check NCI-H23 lung data and give TGI for `N#CCCC(C=O)(CCC#N)CCC#N` .
Result: > 100 µM

Ask: Check NCI-H23 lung data and give TGI for `Clc1ccc2c(c1)N(CCCN1CCCC13CCCCC3)c1ccccc1S2` .
Result: 44.2 µM

Ask: Check NCI-H23 lung data and give TGI for Cn1c(=O)oc2cc(C3CCC(=O)N3Cc3csc(-c4ccccc4)n3)ccc21 (stereo not given) .
Result: > 100 µM

---

// reported TGI per item
System: OVCAR-5 ovarian
Assay: NCI tumour cell line growth inhibition, 48 h

Consider the following illustrative entries.
1. O=c1[nH]c(C2CCCN2)nc2c1oc1ccc(Cl)cc12 (stereo not drawn)
> 100 µM
2. NCCO/C=C/C(N)C(=O)O (stereo not drawn)
> 100 µM

Let's switch to this compound now.
Ask: Supply recorded TGI for `C1=CC(=P(c2ccccc2)(c2ccccc2)c2ccccc2)C=C1` here.
Result: 28.6 µM

---

Test system: K-562 leukemia
Assay: NCI tumour cell line growth inhibition, 48 h
Measurement kind: TGI

Consider the following illustrative entries.
1. NC(=O)[C@H](Cc1ccc(O)cc1)Nc1c(O)c2c(c(O)c1Cl)C(=O)C=CC2=O
5.37 µM
2. CN1CCCC2[C@@H]3CCC4c5nonc5CC[C@]4(C)C3CC[C@@]21C (stereo partly specified)
> 100 µM
3. Clc1ccc2c(NCCCCCCNc3ccnc4cc(Cl)ccc34)ccnc2c1
4.98 µM
4. CC(Nc1ccc(Cl)cc1)c1ccncc1 (stereo unspecified)
> 100 µM
5. CC1=NN(c2cccc(Cl)c2)C(=O)/C1=C\c1cn(CC(O)CN2CCCCC2)c2ccccc12 (stereo unspecified)
39.4 µM

Ask: Supply recorded TGI for `COc1cc(C)c2c(c1)CN1CN2Cc2cc(OC)cc(C)c21` here.
Result: > 100 µM

Ask: Supply recorded TGI for CN(CCCCCl)P(=O)(OCc1ccc([N+](=O)[O-])o1)OCC1OC(n2ccc(N)nc2=O)C(O)C1O (stereo unspecified) here.
Result: > 100 µM

Ask: Supply recorded TGI for `O=[N+]([O-])c1ccc(-n2nc3ccc4nonc4c3n2)cc1` here.
Result: > 100 µM

Ask: Supply recorded TGI for `C[C@]12CC[C@H]3[C@@H](CC=C4C[C@@H](N5CCCC5)CC[C@@]43C)[C@@H]1C[C@H](N1CCCCC1)[C@@H]2O` here.
Result: 49.6 µM

Ask: Supply recorded TGI for COC(=O)C1CC(c2ccc(OC)c(OC)c2)OC1=O (mixture of isomers) here.
Result: > 100 µM

Ask: Supply recorded TGI for `Cc1cc2c(c(C(=O)O)c1C)-c1cccc(Cl)c1C2=O` here.
Result: > 100 µM

Ask: Supply recorded TGI for `COc1ccc(-n2cc(-c3ccc(OC)c(OC)c3)[nH]c2=O)cc1` here.
Result: > 100 µM

Ask: Supply recorded TGI for `COc1ccc(-c2nc3ccccc3s2)cc1OC` here.
Result: > 100 µM

Ask: Supply recorded TGI for `CCCC(=O)O[C@]1(C)CC[C@@H]2[C@H]3[C@@H]1[C@@H]1C[C@@](C)(O)[C@H](OC)CC[C@](C)(OC(=O)[C@@H]2C)[C@H]3O1` here.
Result: 27.5 µM

Ask: Supply recorded TGI for `Cc1c(C)c([N+](=O)[O-])c2c(c1N)C(=O)c1ccccc1C2=O` here.
Result: > 100 µM

Ask: Supply recorded TGI for Cn1/c(=N\N=C2\C=C3CCCCC3(C)CC2)sc2ccccc21 (stereo unspecified) here.
Result: > 100 µM

Ask: Supply recorded TGI for COc1cc2c[n+]3c4c(c2c(OC)c1OC)CCCC4CC3 (stereo unspecified) here.
Result: > 100 µM

Ask: Supply recorded TGI for N[C@@H](CCC(=O)NC(Cc1ccccc1)C(=O)NCP(=O)(O)O)C(=O)O (stereo partly specified) here.
Result: > 100 µM

Ask: Supply recorded TGI for `COc1ccc2[nH]c(C(=O)N3CCN(C(=O)OCc4ccc5c(Cl)cc(Cl)c(O)c5n4)CC3)cc2c1` here.
Result: 4.41 µM

Ask: Supply recorded TGI for `Nc1cc2c3c(cccc3c1)C(=O)N(CCN1CCCC1)C2=O` here.
Result: > 37.6 µM

Ask: Supply recorded TGI for CC1OC(OC2C(O[C@H]3CC[C@@]4(C)C(=CC[C@H]5[C@@H]6C[C@@H]7O[C@]8(CC[C@@H](C)CO8)[C@@H](C)[C@@H]7[C@@]6(C)CC[C@@H]54)C3)OC(CO)C(O)C2OC2OC(CO)C(O)C(O)C2O)C(O)C(O)C1O (stereo partly specified) here.
Result: > 100 µM

Ask: Supply recorded TGI for `NC(N)=N/N=C\c1ccc(OCc2ccccc2)cc1` here.
Result: 5.91 µM

Ask: Supply recorded TGI for O=C(O)CSC(CC(=O)c1ccc(Cl)cc1)c1ccc(Cl)cc1 (stereo unspecified) here.
Result: > 100 µM
